- testedOn: Human P2X2 receptor (P2X2R) (Homo sapiens, UniProt Q9UBL9)
- Construct: expressed in transfected cells; host or cells: HEK-293
- Sequence (Q9UBL9 1-471): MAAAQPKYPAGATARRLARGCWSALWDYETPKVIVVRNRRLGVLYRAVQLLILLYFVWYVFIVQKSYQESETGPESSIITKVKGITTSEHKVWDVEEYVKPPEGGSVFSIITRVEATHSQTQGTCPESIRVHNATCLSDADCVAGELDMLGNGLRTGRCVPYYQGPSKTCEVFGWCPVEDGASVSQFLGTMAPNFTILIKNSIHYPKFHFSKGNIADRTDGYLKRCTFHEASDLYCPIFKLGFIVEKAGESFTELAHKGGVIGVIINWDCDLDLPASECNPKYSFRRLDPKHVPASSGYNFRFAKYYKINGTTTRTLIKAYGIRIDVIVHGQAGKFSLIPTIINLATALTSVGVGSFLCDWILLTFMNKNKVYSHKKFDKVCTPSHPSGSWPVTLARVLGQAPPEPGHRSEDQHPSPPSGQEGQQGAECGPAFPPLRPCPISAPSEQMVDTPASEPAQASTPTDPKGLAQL
- experimentNotes: Yo-Pro-1 uptake assay, P2X2R transfected HEK-293 cells
- Assay type: cell-based
- conditionSummary: HEK293, compound at 5 μM, 5 μM ATP stimulus, read-out: Percentage of activity remains in the presence of the compound at 5 μM, P2X2R (Yo-Pro-1 Assay)
Below, each entry is listed alongside its reported remaining activity at 5 µM.

CC(C)(C)OC(=O)N1CCN(c2ccc(S(=O)(=O)N3CCCC(C(=O)NCCc4ccccc4)C3)cc2)CC1 (centres unmarked) | 61.8%
O=C(CCc1ccccc1)N1CCN(S(=O)(=O)c2ccc(F)cc2)CC1 | 74.9%
O=C(CCc1ccccc1)NC1CCCN(S(=O)(=O)c2ccc(F)c(Cl)c2)C1 (centres unmarked) | 71.1%

## Task Tell me the measured remaining activity at 5 µM of "O=S(=O)(c1ccccc1)C1CN(S(=O)(=O)c2ccc(N3CCCCC3)cc2)C1" , please.
## Result 38.2%

## Task # get_value(readout='remaining activity at 5 µM', item= CC1CCCCN1c1ccc(S(=O)(=O)N2CCCC(NC(=O)CCc3ccccc3)C2)cc1 (centres unmarked) )
## Result 69.7%
